- experiment_description: silicate ester hydrolysis rate study by 1H NMR
- Assay type: physicochemical
- reported_conditions: C7 silicate; kobs relative to that of 1d
Below: a set of entries, each annotated with reported ∼krel of hydrolysis at C7.

line_notation	∼krel of hydrolysis at C7
CCO[Si](OCC)(OCC)O[C@H]1C[C@H]2OC[C@@]2(OC(C)=O)[C@H]2[C@H](OC(=O)c3ccccc3)[C@]3(O)C[C@H](OC(=O)[C@H](O)[C@@H](NC(=O)c4ccccc4)c4ccccc4)C(C)=C([C@@H](OC(C)=O)C(=O)[C@]12C)C3(C)C	2200
CCCCCCCCO[Si](OCCCCCCCC)(OCCCCCCCC)O[C@H]1C[C@H]2OC[C@@]2(OC(C)=O)[C@H]2[C@H](OC(=O)c3ccccc3)[C@]3(O)C[C@H](OC(=O)[C@H](O[Si](OCCCCCCCC)(OCCCCCCCC)OCCCCCCCC)[C@@H](NC(=O)c4ccccc4)c4ccccc4)C(C)=C([C@@H](OC(C)=O)C(=O)[C@]12C)C3(C)C	340
CC(=O)O[C@H]1C(=O)[C@]2(C)[C@@H](O[Si](OC(C)C)(OC(C)C)OC(C)C)C[C@H]3OC[C@@]3(OC(C)=O)[C@H]2[C@H](OC(=O)c2ccccc2)[C@]2(O)C[C@H](OC(=O)[C@H](O[Si](OC(C)C)(OC(C)C)OC(C)C)[C@@H](NC(=O)c3ccccc3)c3ccccc3)C(C)=C1C2(C)C	46
CCO[Si](OCC)(OCC)O[C@H]1C[C@H]2OC[C@@]2(OC(C)=O)[C@H]2[C@H](OC(=O)c3ccccc3)[C@]3(O)C[C@H](OC(=O)[C@H](O[Si](OCC)(OCC)OCC)[C@@H](NC(=O)c4ccccc4)c4ccccc4)C(C)=C([C@@H](OC(C)=O)C(=O)[C@]12C)C3(C)C	2100
CCCCCCCCO[Si](OCCCCCCCC)(OCCCCCCCC)O[C@H]1C[C@H]2OC[C@@]2(OC(C)=O)[C@H]2[C@H](OC(=O)c3ccccc3)[C@]3(O)C[C@H](OC(=O)[C@H](O)[C@@H](NC(=O)c4ccccc4)c4ccccc4)C(C)=C([C@@H](OC(C)=O)C(=O)[C@]12C)C3(C)C	450

###

- experiment_description: silicate ester hydrolysis rate study by 1H NMR
- Format: physicochemical
- reported_conditions: C2′ silicate; kobs relative to that of 1d
Below: a set of entries, each annotated with reported ∼krel of hydrolysis at C2′.
measured_metric: ∼krel of hydrolysis at C2′

compound	val
CCO[Si](O[C@@H](C(=O)O[C@H]1C[C@@]2(O)[C@@H](OC(=O)c3ccccc3)[C@@H]3[C@]4(OC(C)=O)CO[C@@H]4C[C@H](O)[C@@]3(C)C(=O)[C@H](OC(C)=O)C(=C1C)C2(C)C)[C@@H](NC(=O)c1ccccc1)c1ccccc1)(OC(C)(C)C)OC(C)(C)C	5.6
CC(=O)O[C@H]1C(=O)[C@]2(C)[C@@H](O[Si](OC(C)C)(OC(C)C)OC(C)C)C[C@H]3OC[C@@]3(OC(C)=O)[C@H]2[C@H](OC(=O)c2ccccc2)[C@]2(O)C[C@H](OC(=O)[C@H](O[Si](OC(C)C)(OC(C)C)OC(C)C)[C@@H](NC(=O)c3ccccc3)c3ccccc3)C(C)=C1C2(C)C	520
CC(=O)O[C@H]1C(=O)[C@@]2(C)[C@H]([C@H](OC(=O)c3ccccc3)[C@]3(O)C[C@H](OC(=O)[C@H](O[Si](OC(C)=O)(OC(C)(C)C)OC(C)(C)C)[C@@H](NC(=O)c4ccccc4)c4ccccc4)C(C)=C1C3(C)C)[C@]1(OC(C)=O)CO[C@@H]1C[C@@H]2O	1900
CC(=O)O[C@H]1C(=O)[C@@]2(C)[C@H]([C@H](OC(=O)c3ccccc3)[C@]3(O)C[C@H](OC(=O)[C@H](O[Si](OC4CC(C)CCC4C(C)C)(OC4CC(C)CCC4C(C)C)OC4CC(C)CCC4C(C)C)[C@@H](NC(=O)c4ccccc4)c4ccccc4)C(C)=C1C3(C)C)[C@]1(OC(C)=O)CO[C@@H]1C[C@@H]2O (some centres unmarked) [1d, 2′-[(Trimenthyloxy)silyl]paclitaxel]	1.0
CCO[Si](OCC)(OCC)O[C@@H](C(=O)O[C@H]1C[C@@]2(O)[C@@H](OC(=O)c3ccccc3)[C@@H]3[C@]4(OC(C)=O)CO[C@@H]4C[C@H](O)[C@@]3(C)C(=O)[C@H](OC(C)=O)C(=C1C)C2(C)C)[C@@H](NC(=O)c1ccccc1)c1ccccc1 [1a, 2′-O-[(Triethoxy)silyl]paclitaxel]	18000

Sourced from paper PMC3983351
